experiment: Cytotoxicity against mouse LMTK cells after 72 hrs by MTT assay; type: cell-based; settings: L-M(TK-)

SMILES NOTATION: CC[C@@]1(O)C(=O)OCc2c1cc1n(c2=O)Cc2cc3ccccc3nc2-1
IC50, µg/mL: 11.7

SMILES NOTATION: CCCCCCCCCC[N+]12CC[N+](CCCCC[N+]34CC[N+](CCCCCCCCCC)(CC3)CC4)(CC1)CC2.[Br-].[Br-].[Br-].[Br-]
IC50, µg/mL: 56.4

SMILES NOTATION: CCCCCCCCCCCCCC[N+]12CC[N+](CCCCC[N+]34CC[N+](CCCCCCCCCCCCCC)(CC3)CC4)(CC1)CC2.[Br-].[Br-].[Br-].[Br-]
IC50, µg/mL: 219

SMILES NOTATION: CCCCCCCCCCCC[N+]12CC[N+](CCCCC[N+]34CC[N+](CCCCCCCCCCCC)(CC3)CC4)(CC1)CC2.[Br-].[Br-].[Cl-].[Cl-]
IC50, µg/mL: 25.6

###

test system: Pseudomonas aeruginosa; experiment: Antimicrobial activity against 10^7 CFU/ml Pseudomonas aeruginosa ATCC 9027 after 22 hrs by serial microdilution method; type: functional; conditions: ATCC 9027, 22 h
PROPERTY MEASURED: MIC

SMILES NOTATION: CCCCCCCCCCCCCC[N+]12CC[N+](CCCCC[N+]34CC[N+](CCCCCCCCCCCCCC)(CC3)CC4)(CC1)CC2.[Br-].[Br-].[Br-].[Br-]
TARGET: Pseudomonas aeruginosa
MEASURED RESULT: > 100 µg/mL

SMILES NOTATION: CCCCCCCC[N+]12CC[N+](CCCCC[N+]34CC[N+](CCCCCCCC)(CC3)CC4)(CC1)CC2.[Br-].[Br-].[Br-].[Br-]
TARGET: Pseudomonas aeruginosa
MEASURED RESULT: > 100 µg/mL

SMILES NOTATION: CCCCCCCCCCCC[N+]12CC[N+](CCCCC[N+]34CC[N+](CCCCCCCCCCCC)(CC3)CC4)(CC1)CC2.[Br-].[Br-].[Cl-].[Cl-]
TARGET: Pseudomonas aeruginosa
MEASURED RESULT: 6.3 µg/mL

SMILES NOTATION: CCCCCCCCC[N+]12CC[N+](CCCCC[N+]34CC[N+](CCCCCCCCC)(CC3)CC4)(CC1)CC2.[Br-].[Br-].[Br-].[Br-]
TARGET: Pseudomonas aeruginosa
MEASURED RESULT: 50 µg/mL

SMILES NOTATION: O=C(O)c1cn(C2CC2)c2cc(N3CCNCC3)c(F)cc2c1=O
TARGET: Pseudomonas aeruginosa
MEASURED RESULT: 1.6 µg/mL

SMILES NOTATION: CCCCCCCCCC[N+]12CC[N+](CCCCC[N+]34CC[N+](CCCCCCCCCC)(CC3)CC4)(CC1)CC2.[Br-].[Br-].[Br-].[Br-]
TARGET: Pseudomonas aeruginosa
MEASURED RESULT: 12.5 µg/mL

###

Entries and their MIC
test system: Staphylococcus aureus; test: Antimicrobial activity against 10^4 CFU/ml Staphylococcus aureus ATCC 25923 after 22 hrs by serial microdilution method; type: functional; conditions: ATCC 25923, 22 h
PROPERTY MEASURED: MIC (µg/mL)

SMILES NOTATION: CCCCCCCCCC[N+]12CC[N+](CCCCC[N+]34CC[N+](CCCCCCCCCC)(CC3)CC4)(CC1)CC2.[Br-].[Br-].[Br-].[Br-]
RESULT UNIT: µg/mL
VALUE MODIFIER: =
MEASURED RESULT: 3.1

SMILES NOTATION: CCCCCCCCCCCC[N+]12CC[N+](CCCCC[N+]34CC[N+](CCCCCCCCCCCC)(CC3)CC4)(CC1)CC2.[Br-].[Br-].[Cl-].[Cl-]
RESULT UNIT: µg/mL
VALUE MODIFIER: =
MEASURED RESULT: 3.1

SMILES NOTATION: CCCCCCCCCCCCCC[N+]12CC[N+](CCCCC[N+]34CC[N+](CCCCCCCCCCCCCC)(CC3)CC4)(CC1)CC2.[Br-].[Br-].[Br-].[Br-]
RESULT UNIT: µg/mL
VALUE MODIFIER: =
MEASURED RESULT: 6.3

SMILES NOTATION: CCCCCCCCC[N+]12CC[N+](CCCCC[N+]34CC[N+](CCCCCCCCC)(CC3)CC4)(CC1)CC2.[Br-].[Br-].[Br-].[Br-]
RESULT UNIT: µg/mL
VALUE MODIFIER: =
MEASURED RESULT: 12.5

SMILES NOTATION: CCCCCCCC[N+]12CC[N+](CCCCC[N+]34CC[N+](CCCCCCCC)(CC3)CC4)(CC1)CC2.[Br-].[Br-].[Br-].[Br-]
RESULT UNIT: µg/mL
VALUE MODIFIER: =
MEASURED RESULT: 12.5

SMILES NOTATION: O=C(O)c1cn(C2CC2)c2cc(N3CCNCC3)c(F)cc2c1=O
RESULT UNIT: µg/mL
VALUE MODIFIER: <
MEASURED RESULT: 0.8

###

tested on: Pseudomonas aeruginosa; test: Antimicrobial activity against 10^7 CFU/ml Pseudomonas aeruginosa ATCC 9027 after 22 hrs by serial microdilution method; format: functional; settings: ATCC 9027, 22 h

MOLECULE: CCCCCCCCC[N+]12CC[N+](CCCCC[N+]34CC[N+](CCCCCCCCC)(CC3)CC4)(CC1)CC2.[Br-].[Br-].[Br-].[Br-]
TARGET: Pseudomonas aeruginosa
VALUE MODIFIER: =
MBC (µg/mL): 100

MOLECULE: CCCCCCCCCCCCCC[N+]12CC[N+](CCCCC[N+]34CC[N+](CCCCCCCCCCCCCC)(CC3)CC4)(CC1)CC2.[Br-].[Br-].[Br-].[Br-]
TARGET: Pseudomonas aeruginosa
VALUE MODIFIER: >
MBC (µg/mL): 100

MOLECULE: O=C(O)c1cn(C2CC2)c2cc(N3CCNCC3)c(F)cc2c1=O [CIPROFLOXACIN]
TARGET: Pseudomonas aeruginosa
VALUE MODIFIER: =
MBC (µg/mL): 3.1

MOLECULE: CCCCCCCC[N+]12CC[N+](CCCCC[N+]34CC[N+](CCCCCCCC)(CC3)CC4)(CC1)CC2.[Br-].[Br-].[Br-].[Br-]
TARGET: Pseudomonas aeruginosa
VALUE MODIFIER: >
MBC (µg/mL): 100

MOLECULE: CCCCCCCCCC[N+]12CC[N+](CCCCC[N+]34CC[N+](CCCCCCCCCC)(CC3)CC4)(CC1)CC2.[Br-].[Br-].[Br-].[Br-]
TARGET: Pseudomonas aeruginosa
VALUE MODIFIER: =
MBC (µg/mL): 25

MOLECULE: CCCCCCCCCCCC[N+]12CC[N+](CCCCC[N+]34CC[N+](CCCCCCCCCCCC)(CC3)CC4)(CC1)CC2.[Br-].[Br-].[Cl-].[Cl-]
TARGET: Pseudomonas aeruginosa
VALUE MODIFIER: =
MBC (µg/mL): 6.3

###

Documented zone of inhibition at 1 µg/mL across a set of compounds
system: Salmonella enterica; test: Antimicrobial activity against Salmonella enterica ATCC 14028 at 1 ug/ml after 24 hrs by agar diffusion method; type: functional; conditions: ATCC 14028, 24 h, read-out: DIZ

COMPOUND: CCCCCCCC[N+]12CC[N+](CCCCC[N+]34CC[N+](CCCCCCCC)(CC3)CC4)(CC1)CC2.[Br-].[Br-].[Br-].[Br-]
RESULT UNIT: mm
zone of inhibition at 1 µg/mL: 4

COMPOUND: O=C(O)c1cn(C2CC2)c2cc(N3CCNCC3)c(F)cc2c1=O [CIPROFLOXACIN]
RESULT UNIT: mm
zone of inhibition at 1 µg/mL: 35

COMPOUND: CCCCCCCCCCCC[N+]12CC[N+](CCCCC[N+]34CC[N+](CCCCCCCCCCCC)(CC3)CC4)(CC1)CC2.[Br-].[Br-].[Cl-].[Cl-]
RESULT UNIT: mm
zone of inhibition at 1 µg/mL: 7

COMPOUND: CCCCCCCCCCCCCC[N+]12CC[N+](CCCCC[N+]34CC[N+](CCCCCCCCCCCCCC)(CC3)CC4)(CC1)CC2.[Br-].[Br-].[Br-].[Br-]
RESULT UNIT: mm
zone of inhibition at 1 µg/mL: 7

COMPOUND: CCCCCCCCC[N+]12CC[N+](CCCCC[N+]34CC[N+](CCCCCCCCC)(CC3)CC4)(CC1)CC2.[Br-].[Br-].[Br-].[Br-]
RESULT UNIT: mm
zone of inhibition at 1 µg/mL: 9

COMPOUND: CC[N+]12CC[N+](CCCCC[N+]34CC[N+](CC)(CC3)CC4)(CC1)CC2
RESULT UNIT: mm
zone of inhibition at 1 µg/mL: 0

COMPOUND: CCCCCCC[N+]12CC[N+](CCCCC[N+]34CC[N+](CCCCCCC)(CC3)CC4)(CC1)CC2
RESULT UNIT: mm
zone of inhibition at 1 µg/mL: 0

COMPOUND: CCC[N+]12CC[N+](CCCCC[N+]34CC[N+](CCC)(CC3)CC4)(CC1)CC2
RESULT UNIT: mm
zone of inhibition at 1 µg/mL: 0

COMPOUND: CCCCCCCCCC[N+]12CC[N+](CCCCC[N+]34CC[N+](CCCCCCCCCC)(CC3)CC4)(CC1)CC2.[Br-].[Br-].[Br-].[Br-]
RESULT UNIT: mm
zone of inhibition at 1 µg/mL: 7

Source listed as ChEMBL document CHEMBL3407338.
